molecular target: glucocerebrosidase (Gcase) (Homo sapiens, UniProt P04062); construct: micellar solution containing 10 nM GCase and 100 nM saposin C; experiment: Glucocerebrosidase (Gcase) activation assay, 4-methylumbelliferyl-beta-D-glucopyranoside substrate, with saposin C; format: biochemical; conditions: 0.1 μM test compound; 10 nM GCase, 100 nM saposin C, pH 4.7; read-out: Percent Gease Activation 0.1 μM Test Compound
Sequence (P04062 40-536): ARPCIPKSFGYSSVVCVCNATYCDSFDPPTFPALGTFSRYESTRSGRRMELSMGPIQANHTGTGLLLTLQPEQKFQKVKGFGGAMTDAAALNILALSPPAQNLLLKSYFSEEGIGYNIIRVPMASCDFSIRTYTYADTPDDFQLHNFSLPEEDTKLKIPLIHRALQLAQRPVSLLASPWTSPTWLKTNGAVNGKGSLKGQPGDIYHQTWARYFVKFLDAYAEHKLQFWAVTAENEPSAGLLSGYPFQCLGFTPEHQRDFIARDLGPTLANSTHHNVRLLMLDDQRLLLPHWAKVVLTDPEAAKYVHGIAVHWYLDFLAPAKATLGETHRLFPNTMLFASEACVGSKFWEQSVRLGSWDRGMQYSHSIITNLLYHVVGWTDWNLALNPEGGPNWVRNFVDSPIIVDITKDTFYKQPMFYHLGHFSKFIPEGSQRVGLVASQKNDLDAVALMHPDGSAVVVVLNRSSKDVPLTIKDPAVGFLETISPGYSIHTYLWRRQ
Please go through the items and note down their activation at 0.1 µM.

# count of solved cases: 5
INSERT INTO measurements (compound, parameter, value_reported) VALUES
  ('Cc1cc(C)n2cnc(C(=O)Nc3ccc(-c4cocn4)cc3)c2n1 [III-3]', 'activation at 0.1 µM', '< 10%'),
  ('COCc1cc(C2CC2)n2cnc(C(=O)NC(C)(C)c3cccc(C#N)c3)c2n1 [III-54]', 'activation at 0.1 µM', '< 10%'),
  ('COCc1cc(C2CC2)nc2c(C(=O)NC(C)(C)c3cccc(OC4CC4)c3)ncn12 [III-56]', 'activation at 0.1 µM', '10 to 20%'),
  ('Cc1cc(C)n2cnc(C(=O)Nc3ccc4[nH]c(C)cc4c3)c2n1 [III-7]', 'activation at 0.1 µM', '< 10%'),
  ('CCCCCOC1CCC(NC(=O)c2ncn3c(C(C)C)cc(C)nc23)CC1 (stereo not drawn) [III-44]', 'activation at 0.1 µM', '< 10%');

Count: 4. Required value per item: activation at 0.1 µM.
1. Cc1cc(C)n2cnc(C(=O)Nc3ccc4c(c3)CC(=O)N4)c2n1 [III-10]
2. Cc1cc(C(F)(F)F)nc2c(C(=O)NC3(C)CCCc4ccccc43)ncn12 (stereo not drawn) [III-34]
3. Cc1cc(C)n2cnc(C(=O)Nc3ccc(-c4ccco4)cc3)c2n1 [III-30]
4. CCOCc1cccc(C(C)(C)NC(=O)c2ncn3c(C(C)C)cc(COC)nc23)c1 [III-60]

Out:
< 10%
< 10%
> 20%
< 10%

Data origin, for the record: patent US10786508B2
